Exercise: state measured z-score for each of the molecules provided.
experimental details: P. aeruginosa biofilm formation inhibitors, primary screen, PAO1 strain, BacTiter-Glo luminescence, LB-PBS (AID 1144)
setup conditions: 12 h, higher = more signal
Answers are plain numbers.

COc1ccc(CCN2C(=O)[C@@]3(Cc4ccccc42)c2ccccc2C(=O)N(Cc2ccccc2Cl)[C@H]3c2ccc(CO)cc2)cc1; -0.456
CO[C@H]1O[C@H](CO)[C@@H](OC(=O)Nc2ccc(Oc3ccccc3)cc2)[C@H](OC(=O)Nc2ccccc2)[C@H]1OC(=O)Nc1ccccc1; -2.24

Query block: Field request: z-score | item: `COC(=O)C(CC#Cc1ccc2c(c1)[C@]1(C(=O)N2)[C@H](c2ccc(OCCO)cc2)N2[C@H](c3ccccc3)[C@H](c3ccccc3)OC(=O)[C@H]2[C@@H]1C(=O)NC[C@H](O)c1ccccc1)C(=O)OC`
Result block: -0.923
